Sourced from paper PMC9482650

biological target: Inadl_8, Q8NI35; assay: holdup assay; design: key: below the threshold = too weak to quantify, mostly under pKd 3.1 to 4; conditions: plain residues with an end cap or a label only (N-terminal biotin on a linker: ttds)
Sequence (Q8NI35 1425-1530): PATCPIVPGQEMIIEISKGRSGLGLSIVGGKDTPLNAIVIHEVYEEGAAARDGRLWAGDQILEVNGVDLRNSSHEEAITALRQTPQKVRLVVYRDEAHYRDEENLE
In this section, each of the binders is paired with its reported pKd.
measure-name: pKd

binder | measure-name | measurement
PRVKPQRSKV [PPP1R13L, Q8WUF5] | pKd | 4.35
SGSRPSATVV [HPV73-E6, Q82005] | pKd | 3.53
RHTTSTETAV [HPV30-E6, P36809] | pKd | 3.94
PVRVCEETSL [OTULIN, Q96BN8] | pKd | 3.61
